Cited source: the supplement of paper PMC10127200

system: OVCAR4; assay: Euclidean distance of Cell Painting phenotypic profile (signed KS, 77 features) to DMSO centroid (dimensionless distance); 5 or 10 uM (library dependent); higher = stronger phenotypic change vs DMSO (phenoactivity); conditions: 48 h
Where a name gives a salt, the structure may show the parent alone.
Euclidean distance vs 1: at or above is met, below is not met.

{"MOLECULE": "Cn1cc(-c2ccc3ncc(Cc4ccc5ncccc5c4)n3n2)cn1", "CLASS_ASSIGNMENT": "met"}
{"MOLECULE": "C=CCn1c(=O)c2cnc(Nc3ccc(N4CCN(C)CC4)cc3)nc2n1-c1cccc(C(C)(C)O)n1", "CLASS_ASSIGNMENT": "met"}
{"MOLECULE": "O=C(N[C@H](CO)[C@H](O)c1ccc([N+](=O)[O-])cc1)C(Cl)Cl [Chloramphenicol]", "CLASS_ASSIGNMENT": "met"}
{"MOLECULE": "CNC[C@@H](O)c1ccc(O)c(O)c1 [L-Adrenaline]", "CLASS_ASSIGNMENT": "not met"}
{"MOLECULE": "COCCc1ccc(OCC(O)CNC(C)C)cc1 (centres undefined) [Metoprolol Tartrate]", "CLASS_ASSIGNMENT": "not met"}
{"MOLECULE": "C(=C\\c1ccccc1)/CN1CCN(C(c2ccccc2)c2ccccc2)CC1 [Cinnarizine]", "CLASS_ASSIGNMENT": "met"}
{"MOLECULE": "Cc1[nH]c2ccccc2c1CCNC(=O)c1cccs1", "CLASS_ASSIGNMENT": "met"}
{"MOLECULE": "Cc1cc(Nc2ncc(Cl)c(Nc3ccccc3S(=O)(=O)C(C)C)n2)c(OC(C)C)cc1C1CCNCC1 [Ceritinib (LDK378)]", "CLASS_ASSIGNMENT": "met"}
{"MOLECULE": "Clc1ccc(C(Cn2ccnc2)OCc2csc3c(Cl)cccc23)c(Cl)c1 (centres undefined) [Sertaconazole nitrate]", "CLASS_ASSIGNMENT": "met"}
{"MOLECULE": "C/C(=N\\NC(=S)N1CCC1)c1ccccn1", "CLASS_ASSIGNMENT": "met"}
{"MOLECULE": "CC(=O)NCCCS(=O)(=O)O [Acamprosate Calcium]", "CLASS_ASSIGNMENT": "not met"}
{"MOLECULE": "CCOc1cc(CC(=O)N[C@@H](CC(C)C)c2ccccc2N2CCCCC2)ccc1C(=O)O [Repaglinide]", "CLASS_ASSIGNMENT": "met"}
{"MOLECULE": "COC(=O)N[C@@H](C)CNc1nccc(-c2cn(C(C)C)nc2-c2cc(Cl)cc(NS(C)(=O)=O)c2F)n1", "CLASS_ASSIGNMENT": "met"}
{"MOLECULE": "CC1C(=O)OC2C(O)C34C5CC(C(C)(C)C)C36C(OC(=O)C6O)OC4(C(=O)O5)C12O (centres undefined) [Ginkgolide B]", "CLASS_ASSIGNMENT": "met"}
{"MOLECULE": "CC/C(=C(\\c1ccc(O)cc1)c1ccc(OCCNC)cc1)c1ccccc1 [Endoxifen HCl]", "CLASS_ASSIGNMENT": "met"}
{"MOLECULE": "CONC(=O)c1ccccc1Nc1cc(Nc2cc(C)nn2C(C)C)ncc1Cl", "CLASS_ASSIGNMENT": "met"}
